Every entry's value here was drawn from a melting point compilation (Tetko et al.; mined from patent text by program, amines drawn as free bases though some values may be those of a salt).

// reported melting point for each item listed

Use these answered entries as a reference point.
Mol | Measured Attribute | Result
CCOC(=O)C(=Cc1ccc(O)cc1)C(=O)CCl | melting point | 92 to 95 °C
CCOC(=O)Nc1ccc2oc(CCC(F)(F)F)cc2c1 | melting point | 108 °C
CNC(=O)c1cnc2ccccc2c1-c1ccccn1 | melting point | 171 to 172 °C
COC(=O)C1=C(C)NC(C)=C(C(=O)OC)C1c1cccc(N(C)C(=NC#N)NCCCN2CCC(c3ccccc3)CC2)c1 | melting point | 85 to 90 °C
O=c1[nH][nH]c(=O)n1CCCCl | melting point | 168 to 170 °C

Sure, the documented melting point for "CC(C)COc1c(-c2ccc(S(C)(=O)=O)cc2)cnn(-c2ccc(F)cc2)c1=O" is 121 to 128 °C

Sure, the documented melting point for "CCOC(=O)c1nnn(-c2ccccc2)c1N" is 124 to 126 °C

Sure, the documented melting point for "CC(C)c1ccc(C2(OC(=O)c3ccccc3)C(=O)c3ccccc3C2=O)c(O)c1" is 117 to 119 °C

###

Measured Attribute: melting point

Use these answered entries as a reference point.
Mol | Measured Attribute | Result
CC/C(=C\C=C\C(=O)Oc1ccc([N+](=O)[O-])cc1)c1ccc(OC)cc1 | melting point | 112 to 114 °C
Nc1cc2c(cc1CCN1CCN(c3cccc(C(F)(F)F)c3)CC1)OCO2 | melting point | 88 °C

Sure, the documented melting point for "CC(=O)Nc1ccc(C(=O)Oc2ccccc2)c(Cl)c1" is 84 to 86 °C

###

Measured Attribute: melting point

Compound | melting point
CCOC(=O)c1cn(C2CC2)c2c(F)c(N3CC(CNC(C)=O)C3)c(F)cc2c1=O | 170 to 190 °C
CC(CNc1nc(N)nc2c1ncn2C1OC(CO)C(O)C1O)(c1ccccc1)c1ccccc1 (centres undefined) | 129 to 132 °C
COC(=O)N1CC[C@@H]2[C@H]1CCC[C@@]2(O)C#Cc1cccc(C)c1 | 110 to 112 °C

The record that follows has no melting point shown yet.
Sure, the documented melting point for CN(C)C1(c2ccccc2)CCC(CNC(=O)N2CCCC(c3c[nH]c4ccc(F)cc34)C2)CC1 (centres undefined) is 98 to 101 °C

###

Measured Attribute: melting point

Compound | Measured Attribute | Result
N#Cc1cc(-c2ccoc2)c2ccc(COc3cc(F)cc(-c4ccccn4)c3)cc2n1 | melting point | 198 to 200 °C
CC(C)NCC(O)c1ccc2c(c1)OCO2 (stereo unspecified) | melting point | 117 to 118 °C
Nc1cccc(N2C(=O)c3ccc(N)cc3C2=O)c1 | melting point | 228 to 231 °C
Cc1nc[nH]c1CSCCC1=NCCS(=O)(=O)N1 | melting point | 146 to 147 °C
CC(O)c1ccc(Nc2nccc(-c3cccnc3)n2)cc1 (stereo unspecified) | melting point | 145 to 147 °C

The record that follows has no melting point shown yet.
Sure, the documented melting point for "O=c1c(O)c(-c2ccc3c(c2)OC(c2ccccc2)(c2ccccc2)O3)oc2cc(O)cc(O)c12" is 239 to 240 °C

###

Measured Attribute: melting point

Use these answered entries as a reference point.
Mol | Result
Cc1ccc2cccc(OCc3c(Cl)ccc(N(C)C(=O)CNC(=O)C=Cc4ccc(-c5nnn[nH]5)cc4)c3Cl)c2n1 | 196 to 208 °C
CCc1cc(OCc2ccc(C(=O)NS(=O)(=O)c3ccccc3C)cc2)c2c(n1)CCCC2 | 266 to 268 °C

The record that follows has no melting point shown yet.
Sure, the documented melting point for "Oc1ccc(O)c(-c2nc3cc(O)ccc3o2)c1" is 309 to 311 °C

###

Measured Attribute: melting point

Compound | melting point
COc1ccc2c(c1)c(C1=C(c3cn(C)c4ccc(OC)cc34)C(=O)N(C)C1=O)cn2C | 114 to 117 °C
CC(CC(=O)c1ccccc1)C(=O)N1CCC[C@H]1C(=O)O (stereo not given in full) | 218 to 220 °C
Fc1ccc(Oc2ccc3nc(Cl)ncc3c2)c(F)c1 | 110 to 113 °C
CCCc1nc2cc(C)c(NC(=O)c3cc(C(F)(F)F)nn3-c3ncccc3Cl)c(C(=O)NC(C)C)c2cc1CC | 213 to 220 °C
Cc1cc(SCc2sc(-c3ccc(C(F)(F)F)cc3)nc2C)cc(C)c1OCC(=O)O | 157 to 158 °C
CCP(=O)(CC)Cc1ccc(NC(=O)C2=Cc3cc(-c4ccc(C)cc4)ccc3OCC2)cc1 | 240 to 241 °C

Sure, the documented melting point for CC(O)c1cc(S(N)(=O)=O)ccc1F (stereo not given) is 150 to 152 °C

Sure, the documented melting point for "Cc1cc(Cl)c(-n2nc(C#N)c(-c3ccco3)c2N)c(Cl)c1" is 192 °C

Sure, the documented melting point for "Cc1nc(-n2cc(CCCc3ccccc3)nn2)sc1C(=O)NCc1cccnc1" is 108 to 110 °C

Sure, the documented melting point for "CC(C)(C)COC(=O)COc1ccc(C(=O)CN2CCN(c3ccncc3)CC2)cc1" is 88 to 90 °C

###

// reported melting point for each item listed

Use these answered entries as a reference point.
Compound | Measured Attribute | Result
O=C(CO)NCc1ccc2ccn(C3CCN(CCc4ccccc4F)CC3)c2c1 | melting point | 151 to 152 °C
CN(CCC#N)c1nc(Nc2cccc(NS(C)(=O)=O)c2)nc2[nH]cnc12 | melting point | 218 to 222 °C
COC(=O)c1cc(Oc2ccc([N+](=O)[O-])cc2)ccc1OC | melting point | 115 to 118 °C
CC12CCC(C(=Cc3ccc(OCCO)cc3)C1=O)C2(C)C (stereo unspecified) | melting point | 68 °C
COc1cc(Nc2c(C#N)cnc3ccc(/C=C/CCN4CCOCC4)cc23)cc(OC)c1OC | melting point | 86 to 87 °C

Sure, the documented melting point for "O=C1NC(=S)SC1=Cc1ccc2c(c1)N(OCc1ccc(Cl)c(Cl)c1)C(=O)CO2" is > 300 °C

###

Measured Attribute: melting point

Molecule | melting point
C=CS(=O)(=O)Nc1c(C)cc(C)cc1C | 117 to 120 °C

The record that follows has no melting point shown yet.
Sure, the documented melting point for "O=C(C[C@@H](NC(=O)C(F)(F)F)C(=O)O)c1ccc(F)c(F)c1" is 136 to 137 °C

###

Measured Attribute: melting point (°C)

Use these answered entries as a reference point.
Molecule | Unit Of Measure | melting point
O=C(O)c1cn(-c2ccc(F)cc2)c2cc(N3CCNC(c4ccco4)C3)c(F)cc2c1=O (centres undefined) | °C | 242
O=C(O)C#Cc1ccc(-c2ccccc2)cc1 | °C | 170
CC(c1ncnc(Cl)c1Cl)C(O)(Cn1cncn1)c1ccc(F)cc1F (centres undefined) | °C | 124
O=C(c1ccc(Br)s1)N(Cc1cccc(O)c1)C1CC1 | °C | 128

A: O=C(O)c1cccnc1NCc1ccccc1
B: Cc1cccc2nc(NC(=O)c3ccc(C(C)(C)CCC(=O)O)cc3)cn12
Challenge: I'd appreciate it if you could identify which of A and B has the greater melting point. Return value: the label identifying the chosen record.
Response given: B

###

// reported melting point for each item listed

Use these answered entries as a reference point.
Compound | Result
Cc1cc2n(n1)-c1ccc(Cl)cc1C(c1ccccc1)=NC2 | 105 to 107 °C
CN(C)CCCN1N=C2C(=Cc3ccccc3)CCCCC2C1c1ccccc1 (stereo not drawn) | 92 to 94 °C

The record that follows has no melting point shown yet.
Sure, the documented melting point for "CCCCCn1nc(-c2ccc(F)cc2)c(-c2ccc(S(C)(=O)=O)cc2)cc1=O" is 65 to 67 °C

###

// reported melting point for each item listed

Sure, the documented melting point for "Cc1ccc(-c2cnc(N)c(C(=O)Nc3cccnc3)n2)cc1C" is 178 to 182 °C

Sure, the documented melting point for Cc1ccc(S(=O)(=O)OCC(NC(=O)OC(C)(C)C)C(C)C)cc1 (stereo unspecified) is 85 °C

Sure, the documented melting point for "CCOC(=O)C(=NOC)C1=CSCCO1" is 64 to 66 °C

Sure, the documented melting point for Cc1cc(C)nc(NC(=O)C(N)CC(C)C)c1 (stereo unspecified) is 78 °C

Sure, the documented melting point for O=C(O)C1CSC(C2CCCCC2)N1 (mixture of isomers) is 248 °C

###

Measured Attribute: melting point

Use these answered entries as a reference point.
Compound | Result
C=C1CC(Cn2cc(C)c(=O)[nH]c2=O)(c2ccc(Cl)cc2)OC1=O (centres undefined) | 188 to 189 °C
Cc1c2c(c(C(C)(O)c3ccc(C(C)C)cc3)c(C)c1NC(=O)OC(C)(C)C)OCC2 (centres undefined) | 185 to 186 °C
N#CCc1cc2c(-c3ccccc3)c(CC(=O)Nc3ccc(Cl)cc3C(F)(F)F)c(=O)oc2cc1Cl | 247 to 248 °C
CCCc1c(O)cccc1Oc1cc(F)ccc1C(=O)OC | 92 to 94 °C

Sure, the documented melting point for "CCOC(=O)CNc1c(C)cccc1[N+](=O)[O-]" is 49 to 52 °C

Sure, the documented melting point for "Fc1ccc(-c2nn3cc(C(F)(F)F)ccc3c2-c2ccnc(NC3CCCC3)n2)cc1" is 155 to 156 °C

Sure, the documented melting point for "COC(=O)[C@@H](C)Nc1ncccc1NC(=O)c1ccc(Cl)cc1" is 125 to 134 °C

Sure, the documented melting point for CCCCCc1c(C(C)C)nc(C(C)C)c(C(C)CO)c1-c1ccc(F)cc1 (centres undefined) is 77 to 79 °C

Sure, the documented melting point for "CCOc1ccc2c(S(=O)(=O)c3ccc(O)cc3)c(C(C)C)cn2c1" is 220 to 221 °C
